# targetOrTestSystem: CYP3A4 (Homo sapiens, UniProt P08684)
# Construct: 0.2 mg/ml pooled human liver microsomes; from tissue; host or cells: pooled human liver microsomes
# Sequence (P08684 whole entry): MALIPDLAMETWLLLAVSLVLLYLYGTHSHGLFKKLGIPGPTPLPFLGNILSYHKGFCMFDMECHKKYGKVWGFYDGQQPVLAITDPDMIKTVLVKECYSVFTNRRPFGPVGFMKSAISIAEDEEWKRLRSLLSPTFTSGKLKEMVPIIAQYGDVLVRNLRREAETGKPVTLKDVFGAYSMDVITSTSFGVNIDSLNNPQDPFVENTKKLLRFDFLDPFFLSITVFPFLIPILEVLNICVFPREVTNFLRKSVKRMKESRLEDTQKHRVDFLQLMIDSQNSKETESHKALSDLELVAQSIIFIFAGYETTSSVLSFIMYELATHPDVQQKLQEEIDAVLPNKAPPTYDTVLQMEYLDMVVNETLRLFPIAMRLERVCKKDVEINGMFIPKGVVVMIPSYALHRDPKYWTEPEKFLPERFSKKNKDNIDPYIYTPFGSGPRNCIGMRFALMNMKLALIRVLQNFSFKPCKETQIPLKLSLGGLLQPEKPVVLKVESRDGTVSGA
# assayRemarks: CYP inhibition assay, human liver microsomes
# Format: in vitro ADME
measurementLabel: IC50

q: Value wanted: IC50 (CYP3A4 (Homo sapiens, UniProt P08684)) of entry CN=[S@@]1(=O)C[C@@](C)(c2cc(-c3cc(-c4ncc(Cl)cn4)no3)ccc2F)N=C(N)C12CCCC2 [Example 28, 2,2,2-trifluoroacetate]
a: > 10 µM

---

# targetOrTestSystem: BACE1 (Homo sapiens)
# Construct: endogenous in cells; host or cells: HEK293 APP cells
# Sequence (P56817 46-501): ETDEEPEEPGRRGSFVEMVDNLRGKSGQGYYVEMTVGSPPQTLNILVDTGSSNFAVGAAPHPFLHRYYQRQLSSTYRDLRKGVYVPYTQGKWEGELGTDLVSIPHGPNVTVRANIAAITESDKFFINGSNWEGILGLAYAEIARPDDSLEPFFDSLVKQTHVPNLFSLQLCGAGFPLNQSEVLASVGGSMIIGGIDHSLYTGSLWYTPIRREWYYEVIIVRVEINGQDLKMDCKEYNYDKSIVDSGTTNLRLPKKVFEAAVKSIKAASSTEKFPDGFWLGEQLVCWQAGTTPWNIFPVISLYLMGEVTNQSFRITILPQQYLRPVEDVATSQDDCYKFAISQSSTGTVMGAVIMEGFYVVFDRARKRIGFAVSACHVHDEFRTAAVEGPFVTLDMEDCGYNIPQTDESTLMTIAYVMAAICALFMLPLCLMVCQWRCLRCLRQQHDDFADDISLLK
# assayRemarks: Cellular Aβ-lowering assay (Abeta 40 AlphaLISA, HEK293 APP cells)
# Type: cell-based
# conditionLabel: 18-20 hrs incubation, Aβ 40 in culture supernatant, read-out: BACE1 cell act. Aβ40 IC50
measurementLabel: IC50
Just the number plus its unit, please.

Batch request: IC50 per item, same order as input.
1. CN=[S@]1(=O)C[C@@](CF)(c2cc(-c3cc(-c4cnc(OC)cn4)no3)ccc2F)N=C(N)C1(C)C [Example 2, 2,2,2-trifluoroacetate]
2. CN=[S@@]1(=O)C[C@@](CF)(c2cc(-c3cn(-c4ccc(C#N)cn4)nn3)ccc2F)N=C(N)C1(C)C [Example 14, 2,2,2-trifluoroacetate]
3. CC1(C)C(N)=N[C@](C)(c2cc(-c3cc(-c4ncc(Cl)cn4)no3)ccc2F)C[S@]1(=O)=NC1CC1 [Example 34, 2,2,2-trifluoroacetate]

a:
1. 141 nM
2. 103 nM
3. 13 nM

State the recorded IC50 for every item in the following list.
1. CN=[S@@]1(=O)C[C@@](C)(c2cc(-c3cc(-c4ncc(OCC(F)F)cn4)no3)ccc2F)N=C(N)C1(C)C
2. COc1cnc(-c2cc(-c3ccc(F)c([C@]4(C)C[S@@](=N)(=O)C(C)(C)C(N)=N4)c3)on2)cn1
3. CN=[S@@]1(=O)C[C@@](C)(c2cc(-c3cc(-c4cnc(OCC5CC5)cn4)no3)ccc2F)N=C(N)C1(C)C

a:
1. 13 nM
2. 8 nM
3. 61 nM
